target: human P-selectin (Homo sapiens, UniProt P16109); construct: IgG-Fc (fusion partner); purchased R&D Systems Europe Ltd., Abingdon, United Kingdom; assay: Competition assay with TM11-PO (competition ELISA); format: binding; conditions: Table 3; gallic acid derivatized peptides; mean of at least 3 experiments at 8 concentrations; read-out: IC50 for human P-selectin as determined by competition Elisa
Sequence (P16109 with tags, fused parts or gaps limits assumed): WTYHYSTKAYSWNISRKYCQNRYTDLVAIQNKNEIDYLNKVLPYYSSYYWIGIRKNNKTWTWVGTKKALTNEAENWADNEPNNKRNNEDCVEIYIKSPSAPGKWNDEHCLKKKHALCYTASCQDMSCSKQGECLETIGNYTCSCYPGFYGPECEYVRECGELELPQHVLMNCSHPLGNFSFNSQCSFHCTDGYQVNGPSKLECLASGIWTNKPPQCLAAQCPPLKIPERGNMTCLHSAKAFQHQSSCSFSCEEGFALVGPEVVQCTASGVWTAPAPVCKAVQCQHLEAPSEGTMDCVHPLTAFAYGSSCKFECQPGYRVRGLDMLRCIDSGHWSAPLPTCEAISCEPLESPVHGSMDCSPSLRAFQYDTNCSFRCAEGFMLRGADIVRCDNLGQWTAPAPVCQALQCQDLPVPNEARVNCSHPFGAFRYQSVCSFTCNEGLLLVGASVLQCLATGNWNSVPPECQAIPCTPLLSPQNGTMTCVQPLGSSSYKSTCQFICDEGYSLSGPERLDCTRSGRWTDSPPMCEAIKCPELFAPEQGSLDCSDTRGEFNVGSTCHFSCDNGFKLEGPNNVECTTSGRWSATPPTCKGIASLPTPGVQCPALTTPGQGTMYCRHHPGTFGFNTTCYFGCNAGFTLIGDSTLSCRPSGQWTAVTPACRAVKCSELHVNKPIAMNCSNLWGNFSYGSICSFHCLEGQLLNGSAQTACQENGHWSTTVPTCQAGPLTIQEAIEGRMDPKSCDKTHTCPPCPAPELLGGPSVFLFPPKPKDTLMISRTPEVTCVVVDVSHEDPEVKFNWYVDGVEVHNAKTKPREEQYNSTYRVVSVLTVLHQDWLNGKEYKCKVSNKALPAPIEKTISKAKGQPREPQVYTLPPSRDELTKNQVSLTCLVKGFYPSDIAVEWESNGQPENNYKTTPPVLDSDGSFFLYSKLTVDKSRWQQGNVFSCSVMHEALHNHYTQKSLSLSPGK
Peptide text beside a SMILES is read from it. * marks the point of attachment. Galloyl = O=C(c1cc(O)c(O)c(O)c1)*; Ahx = NCCCCCC(=O)O; GABA = NCCCC(=O)O
Parameter: pIC50
Quick note: pIC50 values are minus log10 of concentrations in mol/L.

Record summary for CC(C)[C@H](NC(=O)[C@H](CC(=O)O)NC(=O)[C@@H](NC(=O)[C@H](Cc1c[nH]c2ccccc12)NC(=O)CCCNC(=O)c1cc(O)c(O)c(O)c1)C(C)C)C(=O)O [Peptide 28] ({Galloyl-GABA}-WVDV-OH) : reported pIC50 = 7.81

pIC50 reading for CC(C)[C@H](NC(=O)[C@H](CC(=O)O)NC(=O)[C@@H](NC(=O)[C@H](Cc1c[nH]c2ccccc12)NC(=O)CCCCCNC(=O)c1cc(O)c(O)c(O)c1)C(C)C)C(=O)O [Peptide 29] ({Galloyl-Ahx}-WVDV-OH) : 7.20

# pIC50 of CC(C)[C@H](NC(=O)[C@H](CC(=O)O)NC(=O)[C@@H](NC(=O)[C@H](Cc1c[nH]c2ccccc12)NC(=O)[C@@H]1CCCN1C(=O)c1cc(O)c(O)c(O)c1)C(C)C)C(=O)O [Peptide 30] (Galloyl-PWVDV-OH) = 6.60
